- Test Method Notes: Mouse pharmacokinetic study
- Format: in vivo, mice
- Applied Conditions: male, Swiss Albino, plasma, ip, 150 mg/kg

{"Compound": "NC1(C(=O)N[C@@H](CCN2CCN(C(=O)CCOCCOCCOCCOCCOCCNc3cccc4c3C(=O)N(C3CCC(=O)NC3=O)C4=O)CC2)c2ccc(Cl)cc2)CCN(c2ncnc3[nH]ccc23)CC1 (stereo partly shown)", "AUC": "32500 ng·h/mL"}

====

- Tested on: BT474 cells
- Test Method Notes: Cell colony formation assay
- Type: cell-based
- Applied Conditions: 14 days
Parameter Measured: inhibition of colony formation

{"Compound": "NC1(C(=O)N[C@@H](CCN2CCN(C(=O)CCOCCOCCOCCOCCOCCCc3cccc4c3C(=O)N(C3CCC(=O)NC3=O)C4=O)CC2)c2ccc(Cl)cc2)CCN(c2ncnc3[nH]ccc23)CC1 (stereo partly shown) [Compound 41]", "Parameter Measured": "inhibition of colony formation", "Meas Value": "did not improve"}
{"Compound": "NC1(C(=O)N[C@@H](CCN2CCN(C(=O)CCOCCOCCOCCOCCOCCOc3cccc4c3C(=O)N(C3CCC(=O)NC3=O)C4=O)CC2)c2ccc(Cl)cc2)CCN(c2ncnc3[nH]ccc23)CC1 (stereo partly shown) [Compound 40]", "Parameter Measured": "inhibition of colony formation", "Meas Value": "did not improve"}
